target: interaction between p53 and MDM2 proteins (Homo sapiens); test: HTRF assay of inhibition of the p53-MDM2 interaction (GST-MDM2 / biotinylated p53 peptide); details: recombinant GST-tagged MDM2 and biotinylated p53 peptide, bsa:0.02%
pIC50: −log10 of the molar value.
quantity_measured: pIC50

INSERT INTO results (compound, quantity_measured, recorded_measurement) VALUES
  ('CC(C)(C)C[C@@H]1N[C@@H](C(=O)Nc2ccc3sc(C(=O)O)cc3c2)[C@H](c2cccc(Cl)c2F)[C@]12C(=O)Nc1cc(Cl)ccc12 (racemic)', 'pIC50', 7.85),
  ('CC(C)(C)C[C@@H]1N[C@@H](C(=O)Nc2ccc(C(N)=O)cc2)[C@H](c2cccc(Cl)c2F)[C@]12C(=O)Nc1c2ccc(Cl)c1F (racemic)', 'pIC50', 7.74);

###

molecular target: interaction between p53 and MDM2 proteins (Homo sapiens, UniProt Q00987); assay: HTRF assay of inhibition of the p53-MDM2 interaction (GST-MDM2 / biotinylated p53 peptide); conditions: recombinant GST-tagged MDM2 and biotinylated p53 peptide, bsa:0.02%
Sequence (Q00987 whole entry): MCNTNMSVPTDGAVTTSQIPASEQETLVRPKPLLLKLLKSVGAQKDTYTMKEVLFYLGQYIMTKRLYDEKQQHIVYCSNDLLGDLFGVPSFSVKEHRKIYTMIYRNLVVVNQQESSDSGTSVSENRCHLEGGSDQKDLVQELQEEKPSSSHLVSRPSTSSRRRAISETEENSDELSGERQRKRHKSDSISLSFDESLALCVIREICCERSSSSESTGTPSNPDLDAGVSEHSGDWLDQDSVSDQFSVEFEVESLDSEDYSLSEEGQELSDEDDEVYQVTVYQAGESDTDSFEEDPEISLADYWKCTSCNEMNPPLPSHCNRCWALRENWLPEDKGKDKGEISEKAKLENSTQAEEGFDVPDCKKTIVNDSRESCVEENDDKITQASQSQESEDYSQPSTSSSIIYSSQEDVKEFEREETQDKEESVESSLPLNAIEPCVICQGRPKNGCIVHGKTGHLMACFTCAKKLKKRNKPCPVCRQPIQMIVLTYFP
quantity_measured: IC50 (nM)

INSERT INTO assay_data (molecule, quantity_measured, recorded_measurement) VALUES
  ('COc1cc(C(N)=O)ccc1NC(=O)[C@@H]1N[C@@H](CC(C)(C)C)[C@@]2(C(=O)Nc3cc(Cl)ccc32)[C@H]1c1cccc(Br)c1F (racemic)', 'IC50', 7);

P. COc1cc(C(=O)O)ccc1NC(=O)[C@@H]1N[C@@H](CC(C)(C)C)[C@@]2(C(=O)Nc3cc(Br)ccc32)[C@H]1c1cccc(Cl)c1F (racemic)
Q. CC(C)(C)C[C@@H]1N[C@@H](C(=O)Nc2ccn(CCO)n2)[C@H](c2cccc(Cl)c2F)[C@]12C(=O)Nc1cc(Cl)ccc12 (racemic)
Query: Given P and Q , report the one with the higher recorded IC50. Write down the label attached to your selection.
Result: Q
(Q: 10 nM, P: 6 nM)
